molecular target: D1R (Homo sapiens); construct: Eurofins Discover X; test: D1R cAMP functional assay, antagonist format (Eurofins DiscoverX HitHunter); settings: antagonist mode, agonist challenge at EC80, read-out: RC50 (IC50), antagonist format
Sequence (P21728 whole entry): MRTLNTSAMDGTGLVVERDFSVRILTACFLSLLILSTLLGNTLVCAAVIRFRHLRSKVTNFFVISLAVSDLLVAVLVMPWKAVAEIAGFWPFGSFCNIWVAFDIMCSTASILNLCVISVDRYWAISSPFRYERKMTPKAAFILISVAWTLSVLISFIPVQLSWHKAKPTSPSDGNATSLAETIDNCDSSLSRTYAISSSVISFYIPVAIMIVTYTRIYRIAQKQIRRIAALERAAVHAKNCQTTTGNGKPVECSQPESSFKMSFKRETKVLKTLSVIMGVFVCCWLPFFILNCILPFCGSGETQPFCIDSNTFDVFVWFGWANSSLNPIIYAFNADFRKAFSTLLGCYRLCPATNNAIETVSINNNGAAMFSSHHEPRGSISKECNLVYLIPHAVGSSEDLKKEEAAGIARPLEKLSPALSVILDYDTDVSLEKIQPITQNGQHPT
experimental.readout: IC50 (nM)
Numbers only, in nM.

## Task Identify measured IC50 corresponding to CN1CCc2c(ccc(O)c2Cl)C(c2ccccc2)C1 (stereo not shown) [Compound 15a]
## Result 130

---

biological target: D1R (dopamine D1 receptor) (Homo sapiens); experiment: biochemical; conditions: [3H]SCH23390 radioligand, triplicate, na = not active (<50% inhibition in a primary assay when tested at 10 µM)
experimental.readout: pKi
One number for each entry, as −log10 of the molar value.

## Task Quick one: give measured pKi for CN1CCc2c(ccc(O)c2Cl)C(c2ccc(O)cc2)C1 (stereo not drawn) [Compound 15d]
## Result 6.79

## Task State, in one line, measured pKi of CCCC(=O)Nc1cc2c(c(Cl)c1O)CCN(C)CC2c1ccccc1 (stereo not drawn) [Compound 19a]
## Result 5.71

Now turn to the next compound.
## Task Specify reported pKi for the compound shown: CC(=O)Nc1cc2c(c(Cl)c1O)CCN(C)CC2c1cccc(C)c1 (stereo not drawn) [Compound 18b]
## Result 5.86
